Form field: combination Emax (one value per entry).
Tested on: NB13 (Neuroblastoma)
Assay: combination Emax (second highest fraction inhibited in the dose matrix, 72 h); higher = more inhibition; extreme values may be limits of the assay
Form field (numeric): enter value without unit.

Illustrative cases are given below, each with its answer.
{"compound": "Cc1nc(-c2cn3c(n2)-c2ccc(-c4cnn(C(C)(C)C(N)=O)c4)cc2OCC3)n(C(C)C)n1 [Taselisib] + O=C(Nc1ccc2[nH]nc(-c3ccncc3)c2c1)[C@@H]1CCN(CC(=O)N2CCN(c3ccc(-c4ncccn4)cc3)CC2)C1 [SCH772984] (first compound max 10 µM, 7x7, partner max 5 µM)", "combination Emax": 0.424}
{"compound": "Cc1cc2ncnn2cc1Nc1ncc2c(n1)n(C1CCOCC1)c(=O)n2C [AZD7648] + CCN(CCO)CCCOc1ccc2c(Nc3cc(CC(=O)Nc4cccc(F)c4)[nH]n3)ncnc2c1 [AZD2811] (first compound max 10 µM, 7x7, partner max 1 µM)", "combination Emax": 0.518}
{"compound": "Cc1c2c(nn1C)CSCc1cc(n(C)n1)CSc1cc(c3ccccc3c1)OCCCc1c(C(=O)O)n(C)c3c-2c(Cl)ccc13 [AZD5991] + Cc1cc2ncnn2cc1Nc1ncc2c(n1)n(C1CCOCC1)c(=O)n2C [AZD7648] (first compound max 1 µM, 7x7, partner max 10 µM)", "combination Emax": 0.245}
{"compound": "Cc1c2c(nn1C)CSCc1cc(n(C)n1)CSc1cc(c3ccccc3c1)OCCCc1c(C(=O)O)n(C)c3c-2c(Cl)ccc13 [AZD5991] + C[C@@H]1COCCN1C2=NC(=NC(=C2)C3(CC3)[S@](=N)(=O)C)C4=C5C=CNC5=NC=C4 [AZD6738] (first compound max 1 µM, 7x7, partner max 10 µM)", "combination Emax": 0.952}

Per the record, CC1(C)CCC(CN2CCN(c3ccc(C(=O)NS(=O)(=O)c4ccc(NCC5CCOCC5)c([N+](=O)[O-])c4)c(Oc4cnc5[nH]ccc5c4)c3)CC2)=C(c2ccc(Cl)cc2)C1 [Venetoclax] + CN(C)CCCOc1ccc(-c2ccc3ncc4c(c3c2)n(C2CCOCC2)c(=O)n4C)cn1 [AZD0156] (first compound max 1 µM, 7x7, partner max 1 µM) has combination Emax of 0.468

Per the record, C[C@@H](c1ccc2nccn2c1)n1nnc2ncc(-c3cnn(C)c3)nc21 [Savolitinib] + CC1(C)CCC(CN2CCN(c3ccc(C(=O)NS(=O)(=O)c4ccc(NCC5CCOCC5)c([N+](=O)[O-])c4)c(Oc4cnc5[nH]ccc5c4)c3)CC2)=C(c2ccc(Cl)cc2)C1 [Venetoclax] (first compound max 1 µM, 7x7, partner max 1 µM) has combination Emax of 0.152

Per the record, COc1cccc(OCCCN)c1-c1cc(Nc2cnc(C#N)cn2)n[nH]1 [Prexasertib] + CN(C)CCCOc1ccc(-c2ccc3ncc4c(c3c2)n(C2CCOCC2)c(=O)n4C)cn1 [AZD0156] (first compound max 1 µM, 7x7, partner max 1 µM) has combination Emax of 0.935

Per the record, COc1cccc(OCCCN)c1-c1cc(Nc2cnc(C#N)cn2)n[nH]1 [Prexasertib] + O=C(c1cc(Cc2n[nH]c(=O)c3ccccc23)ccc1F)N1CCN(C(=O)C2CC2)CC1 [Olaparib] (first compound max 1 µM, 7x7, partner max 10 µM) has combination Emax of 0.881

Per the record, N#Cc1cnc(Nc2cc(NC[C@H]3CNCCO3)c(C(F)(F)F)cn2)cn1 [SRA737] + CCc1c2c(nc3ccc(O)cc13)-c1cc3c(c(=O)n1C2)COC(=O)[C@]3(O)CC [SN-38] (first compound max 10 µM, 7x7, partner max 0.3 µM) has combination Emax of 0.88

Per the record, COc1nnc2ccc(N3CCC(c4ccc(OCCN5CCN(C)C(=O)[C@H]5C)cc4)CC3)nn12 [AZD5153] + Cc1c2c(nn1C)CSCc1cc(n(C)n1)CSc1cc(c3ccccc3c1)OCCCc1c(C(=O)O)n(C)c3c-2c(Cl)ccc13 [AZD5991] (first compound max 1 µM, 7x7, partner max 1 µM) has combination Emax of 0.907

Hey, just so you know, these numbers are from the supplement of paper PMC11061612.
